meta.source: ChEMBL document CHEMBL3988442

The entries below are paired with their reported Percent Effect.
Molecular target: Sialic acid-binding Ig-like lectin 9 (Homo sapiens) (UniProt Q9Y336)
Sequence (Q9Y336 whole entry): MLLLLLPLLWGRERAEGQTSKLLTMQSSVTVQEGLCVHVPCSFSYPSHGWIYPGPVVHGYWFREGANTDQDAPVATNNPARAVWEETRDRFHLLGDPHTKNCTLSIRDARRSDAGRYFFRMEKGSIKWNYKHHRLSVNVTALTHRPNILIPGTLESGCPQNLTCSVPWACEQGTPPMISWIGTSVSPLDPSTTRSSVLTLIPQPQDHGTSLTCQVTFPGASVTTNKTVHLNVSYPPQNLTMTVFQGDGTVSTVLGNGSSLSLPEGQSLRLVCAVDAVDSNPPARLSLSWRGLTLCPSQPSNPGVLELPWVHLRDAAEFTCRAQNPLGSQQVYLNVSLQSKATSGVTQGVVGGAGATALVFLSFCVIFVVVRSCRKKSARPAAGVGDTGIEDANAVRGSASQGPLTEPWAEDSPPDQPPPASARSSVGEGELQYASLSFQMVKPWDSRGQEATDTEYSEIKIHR
Assay: Hs-Siglec9 ALPHAscreen SOP 20170721
Parameters: scale not given: direction of the effect not stated beside the values
Conditions: 10 µM
All answers are understood in %, so give the number only.

Field: example entries. Status: answers known.
1) CCOC(C)c1nc(CN2CCNCC2)cs1 (stereo not given) | 0.0763
2) O=C(NCc1ccccn1)NC1CCOc2ccccc21 (stereo not given) | 9.97
3) O=C(c1cccc2c1OCO2)N1CCCC(n2cccn2)C1 (stereo not given) | 1.58
4) Cc1ccn(-c2ccc(C(=O)N3CCCC(C(N)=O)C3)cc2)n1 (stereo not given) | 3.7
5) Cc1cc(S(=O)(=O)N2CCCc3cc(F)cc(F)c32)sc1C(=O)O | 0.801

Data request: Can you look up the measured Percent Effect of Cc1cc(C)n(CC2CCCCN2CC(=O)Nc2nncs2)n1 (stereo not given) for me?
Data returned: 15

Data request: Can you look up the measured Percent Effect of O=C1CC(c2cccnc2)c2c(c(C(=O)O)cn2-c2ccccc2)N1 (stereo not given) for me?
Data returned: -0.792

Data request: Can you look up the measured Percent Effect of COCCN1CCN(CCCS(C)(=O)=O)CC1C (stereo not given) for me?
Data returned: 7.36

Data request: Can you look up the measured Percent Effect of O=C(NC1(c2cccc(F)c2)CCOCC1)c1cc[nH]n1 for me?
Data returned: 4.75

Data request: Can you look up the measured Percent Effect of COCCN(Cc1ccoc1)C(=O)c1cccnc1SC for me?
Data returned: 2.43
